system: WI-38; experiment: MTT cytotoxicity assay, normal cell line WI-38; assay type: cell-based, human; conditions: normal (non-cancer) cell line, 24 h treatment
In this section we review reported IC50 values for a set of molecules.
Parameter: IC50 (µM)

>>> quantitative_readout("COc1cc(/C=C/C(=O)c2ccccc2)ccc1OCc1ccccc1")
40.1
>>> quantitative_readout("COc1cccc(/C=C/C(=O)c2ccccc2)c1")
77.3
>>> quantitative_readout("COc1cccc(C(=O)/C=C/c2ccc(OCc3ccccc3)c(OC)c2)c1")
39

====

Recorded inhibition at 100 µM values for a group of compounds are listed next.
target: HER2 (Homo sapiens, UniProt P04626); test: In vitro protein kinase inhibition assay (ELISA kit), HER2; details: read-out: Inhibition (%) Her2, 100 µM; individual Data 1-3
Sequence (P04626 23-1255): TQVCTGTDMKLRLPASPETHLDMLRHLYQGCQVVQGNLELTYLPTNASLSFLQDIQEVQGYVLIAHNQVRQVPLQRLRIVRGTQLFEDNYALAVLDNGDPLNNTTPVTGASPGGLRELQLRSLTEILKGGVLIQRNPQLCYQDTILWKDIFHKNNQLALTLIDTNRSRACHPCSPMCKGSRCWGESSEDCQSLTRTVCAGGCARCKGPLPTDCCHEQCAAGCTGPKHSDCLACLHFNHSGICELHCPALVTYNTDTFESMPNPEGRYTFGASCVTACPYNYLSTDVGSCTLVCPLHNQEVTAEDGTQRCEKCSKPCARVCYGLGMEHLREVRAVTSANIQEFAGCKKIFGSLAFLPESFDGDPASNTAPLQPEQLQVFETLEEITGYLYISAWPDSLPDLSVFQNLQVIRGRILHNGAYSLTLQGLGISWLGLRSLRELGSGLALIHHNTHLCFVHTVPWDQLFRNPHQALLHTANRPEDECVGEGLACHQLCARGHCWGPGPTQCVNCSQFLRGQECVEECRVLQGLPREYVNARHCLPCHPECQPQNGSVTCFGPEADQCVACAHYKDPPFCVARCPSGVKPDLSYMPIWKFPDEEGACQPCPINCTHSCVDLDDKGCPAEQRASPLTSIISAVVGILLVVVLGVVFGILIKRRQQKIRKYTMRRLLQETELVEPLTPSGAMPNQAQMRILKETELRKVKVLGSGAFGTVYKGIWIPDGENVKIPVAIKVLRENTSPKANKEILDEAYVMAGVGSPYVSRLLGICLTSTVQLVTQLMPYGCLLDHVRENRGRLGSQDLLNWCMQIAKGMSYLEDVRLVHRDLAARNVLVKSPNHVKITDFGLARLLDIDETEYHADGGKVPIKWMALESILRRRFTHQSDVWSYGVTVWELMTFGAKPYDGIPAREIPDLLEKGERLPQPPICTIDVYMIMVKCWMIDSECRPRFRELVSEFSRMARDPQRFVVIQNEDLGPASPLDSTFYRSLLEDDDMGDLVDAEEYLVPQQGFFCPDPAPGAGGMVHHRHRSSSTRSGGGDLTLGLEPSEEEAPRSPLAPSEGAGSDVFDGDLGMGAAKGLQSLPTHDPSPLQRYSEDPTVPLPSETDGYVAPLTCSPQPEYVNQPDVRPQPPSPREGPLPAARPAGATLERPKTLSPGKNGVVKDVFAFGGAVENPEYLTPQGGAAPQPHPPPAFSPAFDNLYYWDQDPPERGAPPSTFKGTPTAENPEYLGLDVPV
Parameter: inhibition at 100 µM (%)

>>> quantitative_readout("COc1cccc(C(=O)/C=C/c2ccc(OCc3ccccc3)cc2)c1")
96.2
>>> quantitative_readout("O=C(/C=C/c1ccccc1)c1ccccc1 [Compound 4a, (E)-Chalcone]")
91
>>> quantitative_readout("COc1ccc(C(=O)/C=C/c2ccc(OCc3ccccc3)c(OC)c2)cc1")
91.6
>>> quantitative_readout("O=C(/C=C/c1ccc(O)cc1)c1ccccc1")
94.2

FYI, the data here is from paper PMC11766267.
